- System: Bacillus subtilis
- TEST PROTOCOL: cleaved RNA product abundance (RNA/gDNA barcode ratio) relative to median wild-type variant (ratio to wild type); higher = more accumulation of the downstream cleavage product
- TEST SETTINGS: experiment (reporter, strain, medium): exp 6: tetM reporter, strain 168; cleavage site: cggR-gapA (positions -7 to +36 mutated)
Task for the reader: assign each of the following sequences its reported cleaved RNA product abundance.
Numbers only.

These recorded examples may help you get a feel for the data.
Could you tell me which cleaved RNA product abundance is on file for ACAGACGAAGGAGCCACAAAGAAGTTATTAAAGGATGAATAATCCCTCAATATAAATATCTCTCACTTATTTAAA ?
0.254

And ACAGACGAAGGAGCCGCAAAGAAGTTATTAAGGGATGAATAATCCCTCAATATAAATATCTCTCACTTATTTAAA ?
1.06

And ACAGACGAAGGAGCCGCAAAGAAGTTATTAAGGGACGAATAATCCCTCAATATAAATATCTCTCACTTATTTAAA ?
0.805

And ACAGACGAAGGAGCCGCAAAGAAGTTATTAAGGGATGAATAATCCCTCAATATTAATATCTCTCACTTATTTAAA ?
0.249

And ACAGACGAAGGAGCCGCAAAGAAGTTATTAAGGGATGAATAATCCCCCAATATAAATATCTCTCACTTATTTAAA ?
0.457

For every listed record, write down its cleaved RNA product abundance.
1. ACAGACGAAGGAGCCGCAAAGAAGTTATTAAGGGATGAATAATCCCTCAATATACATATCTCTCACTTATTTAAA
2. ACAGACGAAGGAGCCGCAAAGAAGTTATTAAGGGATGAATAATCCCTCAATATAAAAATCTCTCACTTATTTAAA

1: 0.498; 2: 0.602

For every listed record, write down its cleaved RNA product abundance.
1. ACAGACGAAGGAGCCGCAAAGAAGTTATTAAGGGATGAATAATCCATCAATATAAATATCTCTCACTTATTTAAA
2. ACAGACGAAGGAGCCGCAAAGAAGTTATTAAGGGATGAATAATCCCTCAATATAAGTATCTCTCACTTATTTAAA
3. ACAGACGAAGGAGCCGCAAAGAAGTCATTAAGGGATGAATAATCCCTCAATATAAATATCTCTCACTTATTTAAA
4. ACAGACGAAGGAGCCGCAAAGAATTTATTAAGGGATGAATAATCCCTCAATATAAATATCTCTCACTTATTTAAA
5. ACAGACGAAGGAGCCGCAAAGAAGTTATTAAGAGATGAATAATCCCTAAATATAAATATCTCTCACTTATTTAAA

[0.201, 0.462, 0.244, 0.623, 0.179]

###

Task for the reader: assign each of the following sequences its reported cleaved RNA product abundance.
- Test system: Bacillus subtilis
- TEST PROTOCOL: cleaved RNA product abundance (RNA/gDNA barcode ratio) relative to median wild-type variant (ratio to wild type); higher = more accumulation of the downstream cleavage product
- TEST SETTINGS: experiment (reporter, strain, medium): exp 8a: truncated aprE reporter, strain BJT201 with 2% xylose (RNase J1 expressed); cleavage site: glnRA (positions -5 to +31 mutated)
Answers are plain numbers.

Form field - read-out: cleaved RNA product abundance; system: Bacillus subtilis; submitted item: CGACATGTCCCGCTTCTTTCATTAATCCGTTGGCAACTGTTTTGCTATATACATTTACCTTTTAAGAGGAGGAAT
0.739

And CGACATGTCCCGCTTCTTTCATTAATCCGTTAACAACTGTGTTGCTATATACATTTACCTTTTAAGAGGAGGAAT ?
0.24

And CGACATGTCCCGCTTCTTTCATTAATCCGTGAGCAAGTGTTTTGCTATATACATTTACCTTTTAAGAGGAGGAAT ?
0.375

And CGACATGTCCCGCTTCTTTCATTAATCCGTCAGCAACTATTTTGCTATATACATTTACCTTTTAAGAGGAGGAAT ?
0.387

And CGACATGTCCCGCTTCTTTCATTATTCCGTTATCAACTGTTTTGCTATACACATTTACCTTTTAAGAGGAGGAAT ?
0.188

And CGACATGTCCCGCTTCTTTCATTAATCCGTTAACAACTGTTTTGCTGTATACATTTACCTTTTAAGAGGAGGAAT ?
0.166

Here is another sequence to look at.
Form field - read-out: cleaved RNA product abundance; system: Bacillus subtilis; submitted item: CGACATGTCCCGCTTCTTTCATTAATCCGTTAGCAACTGTTTTGCTATAAACATTTATCTTTTAAGAGGAGGAAT
0.717

###

- Test system: Bacillus subtilis
- TEST PROTOCOL: cleaved RNA product abundance (RNA/gDNA barcode ratio) relative to median wild-type variant (ratio to wild type); higher = more accumulation of the downstream cleavage product
- TEST SETTINGS: experiment (reporter, strain, medium): exp 8a: truncated aprE reporter, strain BJT201 with 2% xylose (RNase J1 expressed); cleavage site: glnRA (positions -5 to +31 mutated)
Everything with cleaved RNA product abundance lower than 0.3 is false; everything else, including exactly 0.3, is true.

Reference set, count: 2
Assess whether reported cleaved RNA product abundance for CGACATGTCCCGCTTCTTTCATTAATCCGTTAGCAAATGTTTAGCTATATACATTTACCTTTTAAGAGGAGGAAT sits at 0.3 or higher.
true

And CGACATGTCCCGCTTCTTTCATTAATCCGTTAGTTACTGTTTTGCTATATACATTTACCTTTTAAGAGGAGGAAT ?
true

***
Assess whether reported cleaved RNA product abundance for CGACATGTCCCGCTTCTTTCATTAATCCGTTAGCAATTGTTTTGCTTTATACATTTACCTTTTAAGAGGAGGAAT sits at 0.3 or higher.
true

And CGACATGTCCCGCTTCTTTCATTAATCGGTTAACAAATGTTGTGCTATAGACATTTACCTTTTAAGAGGAGGAAT ?
false

And CGACATGTCCCGCTTCTTTCATTAATCCGTTAGCAACTGTTTTGCTATCTACATTTACCTTTTAAGAGGAGGAAT ?
false

And CGACATGTCCCGCTTCTTTCATTAATCCGTTATCAATTGTTTTGCTATATACATTTACCTTTTAAGAGGAGGAAT ?
false

And CGACATGTCCCGCTTCTTTCATTACTCCGTTAGTAACGGTTTTGCTATATACATTTACCTTTTAAGAGGAGGAAT ?
false

###

- Tested on: Bacillus subtilis
- TEST PROTOCOL: cleaved RNA product abundance (RNA/gDNA barcode ratio) relative to median wild-type variant (ratio to wild type); higher = more accumulation of the downstream cleavage product
- TEST SETTINGS: experiment (reporter, strain, medium): exp 4a: truncated aprE reporter, strain BJT201 with 2% xylose (RNase J1 expressed); cleavage site: cggR-gapA (positions -7 to +36 mutated)
MEASURE: cleaved RNA product abundance
Numbers only.

These recorded examples may help you get a feel for the data.
Could you tell me which cleaved RNA product abundance is on file for ACAGACGAAGGAGCCGCAAAAAAGTTATTAAGGGATGAATAATCCCCCAATATAAATATCTCTCACTTATTTAAA ?
0.35

And ACAGACGAAGGAGCCGCAAAGAACTTATTCAGGGATGAATAATCCCTCAATATAAATATCTCTCACTTATTTAAA ?
0.525

And ACAGACGAAGGAGCCGCAAAGAAGTTATTAAGGCATGAATAATCCCTCTATATAAATATCTCTCACTTATTTAAA ?
0.0965

And ACAGACGAAGGAGCCGCAAAGAAGTTATTAAGCGATGAATAATCCCTCAATAGAAATATCTCTCACTTATTTAAA ?
0.0613

And ACAGACGAAGGAGCCGCAAAGAAGTTATTAAGGGATGAATCATCCCCCAATATAAATATCTCTCACTTATTTAAA ?
0.296

For every listed record, write down its cleaved RNA product abundance.
1. ACAGACGAAGGAGCCGCAAAGAAGTTATAAAGGCATGAATAATCCCTCAATATAAATATCTCTCACTTATTTAAA
2. ACAGACGAAGGAGCCGCAAAGAAGTTATTAAGGGATGAATAATCCCTCAATATAAATTTCTCTCACTTATTTAAA
3. ACAGACGAAGGAGCCGCAAAGAAGTTATTAAGGGATGCATAATCCCTCAATATAAACATCTCTCACTTATTTAAA
4. ACAGACGAAGGAGCCGCAAAGAACTTAATAAGGGATGAATAATCCCTCAATATAAATATCTCTCACTTATTTAAA
5. ACAGACGAAGGAGCCGCAAATAAGTTATTAAGGGATGAATAATCCCTCAATATAAATTTCTCTCACTTATTTAAA
6. ACAGACGAAGGAGCCGCAAAGAAGTTATTAAGGGATTAATAATTCCTCAATATAAATATCTCTCACTTATTTAAA
7. ACAGACGAAGGAGCCGCAAAGAAGTTAATAAGGGATGAATAAACCCTCAATATAAATATCTCTCACTTATTTAAA
8. ACAGACGAAGGAGCCGCAAAGAAGTCATTAAGTGATGAATAATCCCTCAATATAAATATCTCTCACTTATTTAAA

1. 0.113
2. 0.761
3. 0.545
4. 0.167
5. 0.862
6. 0.569
7. 0.177
8. 0.0976

For every listed record, write down its cleaved RNA product abundance.
1. ACAGACGAAGGAGCCGCAAAGAAGTTATTAAGGTATGAATAATCTCTCAATATAAATATCTCTCACTTATTTAAA
2. ACAGACGAAGGAGCCGCAAAGAAGTAATTAAGGGATGAATAATGCCTCAATATAAATATCTCTCACTTATTTAAA

[0.162, 0.164]

Data provenance: the supplement of paper PMC11780869
